FYI, the data here is from ChEMBL document CHEMBL1148353.

system.tested: Delta-type opioid receptor (Rattus norvegicus, UniProt P33533)
Sequence (P33533 whole entry): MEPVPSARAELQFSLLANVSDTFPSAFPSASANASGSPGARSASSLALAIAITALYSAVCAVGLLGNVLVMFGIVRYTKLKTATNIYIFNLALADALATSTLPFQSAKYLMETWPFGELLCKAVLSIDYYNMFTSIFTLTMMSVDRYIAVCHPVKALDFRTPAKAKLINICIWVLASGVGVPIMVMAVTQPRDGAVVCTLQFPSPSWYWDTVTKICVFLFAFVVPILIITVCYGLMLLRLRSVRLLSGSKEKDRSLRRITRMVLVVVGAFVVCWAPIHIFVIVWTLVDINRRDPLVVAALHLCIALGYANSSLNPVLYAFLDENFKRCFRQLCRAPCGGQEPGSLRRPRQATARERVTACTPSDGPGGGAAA
test.name: Binding affinity against rat brain opioid receptor delta 1 using [3H]DPDPE radioligand
Where a SMILES comes first, the peptide text is derived from it. The star is where a group is joined. NHBn = c1ccc(CN*)cc1
result.type: Ki

Query: Value lookup for Ki; key = Cc1cc(O)cc(C)c1C[C@H](N)C(=O)N1CCC[C@H]1C(=O)N[C@@H](Cc1ccccc1)C(=O)N[C@@H](Cc1ccccc1)C(N)=O
Reply: 28.2 nM

Query: Value lookup for Ki; key = Cc1cc(O)cc(C)c1C[C@H](N)C(=O)N1CCC[C@H]1C(=O)N[C@@H](Cc1ccccc1)C(=O)Nc1ccncc1
Reply: 52.7 nM

Query: Value lookup for Ki; key = N[C@@H](Cc1ccc(O)cc1)C(=O)N1CCC[C@H]1C(=O)N[C@@H](Cc1ccccc1)C(=O)NCc1ccccc1 (H-Tyr-Pro-Phe-NHBn)
Reply: 1730 nM

====

system.tested: Opioid receptors; mu & delta (Rattus norvegicus) (UniProt P33533+P33535)
Sequence (P33533 whole entry, looked up): as the sequence (P33533 whole entry) above
Sequence (P33535 whole entry, looked up): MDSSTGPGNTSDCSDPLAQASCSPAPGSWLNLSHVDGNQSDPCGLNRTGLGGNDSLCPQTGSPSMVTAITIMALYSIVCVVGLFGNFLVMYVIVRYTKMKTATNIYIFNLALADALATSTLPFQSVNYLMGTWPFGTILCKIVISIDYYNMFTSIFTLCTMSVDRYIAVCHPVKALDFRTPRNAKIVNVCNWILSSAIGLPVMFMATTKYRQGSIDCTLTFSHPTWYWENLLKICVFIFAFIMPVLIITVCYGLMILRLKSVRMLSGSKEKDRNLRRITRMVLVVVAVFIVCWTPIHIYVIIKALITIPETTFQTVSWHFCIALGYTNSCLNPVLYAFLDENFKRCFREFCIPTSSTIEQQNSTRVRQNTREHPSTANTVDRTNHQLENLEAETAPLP
test.name: Ratio of binding affinity against rat brain delta opioid receptor to that of mu opioid receptor
Where a SMILES comes first, the peptide text is derived from it. [ ]: non-standard residue; d: D form. Dmt = Cc1cc(O)cc(C)c1C[C@H](N)C(=O)O
result.type: Ratio
Answer as a number with no unit attached.

Worked examples follow.
INSERT INTO results (molecule, result_type, quantitative_readout) VALUES
  ('N[C@@H](Cc1ccc(O)cc1)C(=O)N1CCC[C@H]1C(=O)N[C@@H](Cc1ccccc1)C(=O)NC1CCCCC1', 'Ratio', 1400),
  ('N[C@@H](Cc1ccc(O)cc1)C(=O)N1CCC[C@H]1C(=O)N[C@@H](Cc1ccccc1)C(=O)Nc1ccncc1', 'Ratio', 521),
  ('Cc1cc(O)cc(C)c1C[C@H](N)C(=O)N1CCC[C@H]1C(=O)N[C@@H](Cc1ccccc1)C(=O)N[C@@H](Cc1ccccc1)C(N)=O', 'Ratio', 188),
  ('Cc1cc(O)cc(C)c1C[C@H](N)C(=O)N1CCC[C@H]1C(=O)N[C@@H](Cc1ccccc1)C(N)=O (H-[Dmt]-Pro-Phe-NH2)', 'Ratio', 443),
  ('N[C@@H](Cc1ccc(O)cc1)C(=O)N1CCC[C@H]1C(=O)N[C@@H](Cc1ccccc1)C(=O)Nc1cccc2ncccc12', 'Ratio', 3110);

Query: Value lookup for Ratio; key = Cc1cc(O)cc(C)c1C[C@H](N)C(=O)N1CCC[C@H]1C(=O)N[C@@H](Cc1ccccc1)C(=O)Nc1cnc2ccccc2c1
Reply: 577

Query: Value lookup for Ratio; key = N[C@@H](Cc1ccc(O)cc1)C(=O)N1CCC[C@H]1C(=O)N[C@@H](Cc1ccccc1)C(=O)Nc1ccccn1
Reply: 742

Query: Value lookup for Ratio; key = Cc1cc(O)cc(C)c1C[C@H](N)C(=O)N1CCC[C@H]1C(=O)N[C@@H](Cc1ccccc1)C(=O)Nc1cccc2ncccc12
Reply: 283

====

Entries below carry reported Ki on Mu-type opioid receptor (Rattus norvegicus, UniProt P33535).
Sequence (P33535 whole entry): as the sequence (P33535 whole entry, looked up) above
Where a SMILES comes first, the peptide text is derived from it. [ ]: non-standard residue; d: D form. Dmt = Cc1cc(O)cc(C)c1C[C@H](N)C(=O)O
Provide the reading as a plain figure in nM.

Worked examples follow.
INSERT INTO results (compound, result_type, units, quantitative_readout) VALUES
  ('N[C@@H](Cc1ccc(O)cc1)C(=O)N1CCC[C@H]1C(=O)N[C@@H](Cc1ccccc1)C(=O)NC1CCCCC1', 'Ki', 'nM', 5.79),
  ('N[C@@H](Cc1ccc(O)cc1)C(=O)N1CCC[C@H]1C(=O)N[C@@H](Cc1ccccc1)C(=O)Nc1cccc2ncccc12', 'Ki', 'nM', 4.07),
  ('Cc1cc(O)cc(C)c1C[C@H](N)C(=O)N1CCC[C@H]1C(=O)N[C@@H](Cc1ccccc1)C(N)=O (H-[Dmt]-Pro-Phe-NH2)', 'Ki', 'nM', 0.12);

Query: Value lookup for Ki; key = N[C@@H](Cc1ccc(O)cc1)C(=O)N1CCC[C@H]1C(=O)N[C@@H](Cc1ccccc1)C(=O)Nc1ccncc1
Reply: 48.2

====

system.tested: Mu-type opioid receptor (Rattus norvegicus, UniProt P33535)
Where a SMILES comes first, the peptide text is derived from it. [ ]: non-standard residue; d: D form. The star is where a group is joined. Dmt = Cc1cc(O)cc(C)c1C[C@H](N)C(=O)O; NHPhenethyl = c1ccc(CCN*)cc1; NHPh = c1ccc(N*)cc1; NHtBu = CC(C)(C)N*
result.type: Ki (nM)
Provide the reading as a plain figure in nM.

Worked examples follow.
INSERT INTO results (molecule, quantitative_readout) VALUES
  ('N[C@@H](Cc1ccc(O)cc1)C(=O)N1CCC[C@H]1C(=O)N[C@@H](Cc1ccccc1)C(=O)NC1C2C[C@H]3C[C@@H](C2)C[C@@H]1C3 (some centres undefined)', 6.59),
  ('N[C@@H](Cc1ccc(O)cc1)C(=O)N1CCC[C@H]1C(=O)N[C@@H](Cc1ccccc1)C(=O)Nc1ccccc1 (H-Tyr-Pro-Phe-NHPh)', 33.5),
  ('CC(C)(C)NC(=O)[C@H](Cc1ccccc1)NC(=O)[C@@H]1CCCN1C(=O)[C@@H](N)Cc1ccc(O)cc1 (H-Tyr-Pro-Phe-NHtBu)', 19.6),
  ('Cc1cc(O)cc(C)c1C[C@H](N)C(=O)N1CCC[C@H]1C(=O)N[C@@H](Cc1ccccc1)C(=O)Nc1ccc2ncccc2c1', 0.22),
  ('N[C@@H](Cc1ccc(O)cc1)C(=O)N1CCC[C@H]1C(=O)N[C@@H](Cc1ccccc1)C(=O)Nc1cccc2ccccc12', 2.41);

Query: Fill in the recorded Ki for this molecule, with Mu-type opioid receptor (Rattus norvegicus, UniProt P33535) as test system: Cc1cc(O)cc(C)c1C[C@H](N)C(=O)N1CCC[C@H]1C(=O)N[C@@H](Cc1ccccc1)C(=O)Nc1cccc2cnccc12
Reply: 0.19

Query: Fill in the recorded Ki for this molecule, with Mu-type opioid receptor (Rattus norvegicus, UniProt P33535) as test system: Cc1cc(O)cc(C)c1C[C@H](N)C(=O)N1CCC[C@H]1C(=O)N[C@@H](Cc1ccccc1)C(=O)NCCc1ccccc1 (H-[Dmt]-Pro-Phe-NHPhenethyl)
Reply: 0.51

====

pKi values by entry
system.tested: UniProtKB P33535
Where a SMILES comes first, the peptide text is derived from it. The star is where a group is joined. NHPhenethyl = c1ccc(CCN*)cc1
Please treat pKi as minus the base-10 logarithm of the molar concentration.

Worked examples follow.
INSERT INTO assay_data (molecule, quantitative_readout) VALUES
  ('NC(=O)[C@H](Cc1ccccc1)NC(=O)[C@@H]1CCCN1C(=O)[C@@H](N)Cc1ccc(O)cc1 (H-Tyr-Pro-Phe-NH2)', 7.33),
  ('Cc1cc(O)cc(C)c1C[C@H](N)C(=O)N1CCC[C@H]1C(=O)N[C@@H](Cc1ccccc1)C(=O)Nc1ccccn1', 9.89),
  ('Cc1cc(O)cc(C)c1C[C@H](N)C(=O)N1CCC[C@H]1C(=O)N[C@@H](Cc1ccccc1)C(=O)Nc1cccc2ncccc12', 9.96),
  ('N[C@@H](Cc1ccc(O)cc1)C(=O)N1CCC[C@H]1C(=O)N[C@@H](Cc1ccccc1)C(=O)Nc1cnc2ccccc2c1', 7.25),
  ('Cc1cc(O)cc(C)c1C[C@H](N)C(=O)N1CCC[C@H]1C(=O)N[C@@H](Cc1ccccc1)C(=O)Nc1cnc2ccccc2c1', 9.48);

Query: Fill in the recorded pKi for this molecule, with UniProtKB P33535 as test system: N[C@@H](Cc1ccc(O)cc1)C(=O)N1CCC[C@H]1C(=O)N[C@@H](Cc1ccccc1)C(=O)NCCc1ccccc1 (H-Tyr-Pro-Phe-NHPhenethyl)
Reply: 7.88

Query: Fill in the recorded pKi for this molecule, with UniProtKB P33535 as test system: N[C@@H](Cc1ccc(O)cc1)C(=O)N1CCC[C@H]1C(=O)N[C@@H](Cc1ccccc1)C(=O)Nc1cccc2cnccc12
Reply: 7.21

====

Species on record: Cavia porcellus
test.name: In vitro inhibitory concentration against electrically induced twitches in guinea pig ileum
Assay type: functional
Where a SMILES comes first, the peptide text is derived from it. [ ]: non-standard residue; d: D form. Dmt = Cc1cc(O)cc(C)c1C[C@H](N)C(=O)O
IC50 values by entry
Provide the reading as a plain figure in nM.

INSERT INTO assay_data (molecule, units, quantitative_readout) VALUES
  ('Cc1cc(O)cc(C)c1C[C@H](N)C(=O)N1CCC[C@H]1C(=O)N[C@@H](Cc1ccccc1)C(N)=O (H-[Dmt]-Pro-Phe-NH2)', 'nM', 2.33);

Query: Value lookup for IC50; key = Cc1cc(O)cc(C)c1C[C@H](N)C(=O)N1CCC[C@H]1C(=O)N[C@@H](Cc1ccccc1)C(=O)Nc1cnc2ccccc2c1
Reply: 9.14

Query: Value lookup for IC50; key = Cc1cc(O)cc(C)c1C[C@H](N)C(=O)N1CCC[C@H]1C(=O)N[C@@H](Cc1ccccc1)C(=O)Nc1cccc2ncccc12
Reply: 0.26

Query: Value lookup for IC50; key = Cc1cc(O)cc(C)c1C[C@H](N)C(=O)N1CCC[C@H]1C(=O)N[C@@H](Cc1ccccc1)C(=O)Nc1ccncc1
Reply: 11.8
